experiment: In vivo pharmacokinetic evaluation in SD rats, gavage; settings: rat, plasma, po, male SD rats, 5 mg/kg
value-kind: AUC(0-t) (µM·h)

Consider the compound CNC(=O)c1ccc(Nc2ncc(C(F)(F)F)c(NCc3nccnc3N(C)S(C)(=O)=O)n2)cc1 [Defactinib, reference compound] and give its measured AUC(0-t).
0.424

Consider the compound C=CC(=O)N1CCC[C@@H](c2cccc(NCc3ccc(Nc4ncc(C(F)(F)F)c(Nc5ccccc5C(=O)NC)n4)cc3)c2)C1 and give its measured AUC(0-t).
0.54

====

assay: In vivo pharmacokinetic evaluation in SD rats, gavage; conditions: rat, plasma, po, male SD rats, 3 mg/kg
value-kind: Tmax (h)

Consider the compound C=CC(=O)N1CCC[C@H](c2cccc(NCc3ccc(Nc4ncc(C(F)(F)F)c(Nc5ccccc5C(=O)NOC)n4)cc3)c2)C1 and give its measured Tmax.
2.67

Consider the compound C=CC(=O)N1CCC[C@@H](c2cccc(NCc3ccc(Nc4ncc(C(F)(F)F)c(Nc5ccccc5C(=O)NOC)n4)cc3)c2)C1 and give its measured Tmax.
2.67

====

assay: In vivo pharmacokinetic evaluation in SD rats, gavage; settings: rat, plasma, po, male SD rats, 3 mg/kg
value-kind: Cmax (µM)

[1] C=CC(=O)N1CCC[C@H](c2cccc(NCc3ccc(Nc4ncc(C(F)(F)F)c(Nc5ccccc5C(=O)NOC)n4)cc3)c2)C1 [Compound 36]
[2] C=CC(=O)N1CCC[C@@H](c2cccc(NCc3ccc(Nc4ncc(C(F)(F)F)c(Nc5ccccc5C(=O)NOC)n4)cc3)c2)C1 [Compound 37]
Could you check which of 1 and 2 has a smaller value for Cmax? Answer by quoting the chosen item's label.
2
(2: 0.0872 µM, 1: 0.146 µM)

====

target: UniProt Q05397; assay: In vitro enzymatic inhibitory activity, FAK kinase (HTRF KinEASE-TK); conditions: FAK kinase, enzyme pre-incubation 15 minutes at 25° C.
value-kind: IC50 (nM)

Previously resolved entries follow.
Consider the molecule C=CC(=O)N1CCC(CNC(=O)c2ccc(Nc3ncc(C(F)(F)F)c(Nc4ccccc4P(C)(C)=O)n3)c(OC)c2)CC1 and give its measured IC50.
5.79

Consider the molecule C=CC(=O)N1CCC[C@H](c2cccc(NCc3ccc(Nc4ncc(C(F)(F)F)c(Nc5ccccc5C(=O)NC)n4)cc3)c2)C1 and give its measured IC50.
1.27

[a] C=CC(=O)N1CCC[C@@H](c2cccc(NCc3ccc(Nc4ncc(C(F)(F)F)c(Nc5ccccc5C(=O)NC)n4)cc3)c2)C1
[b] C=CC(=O)N1CCCC(c2cccc(NCc3ccc(Nc4ncc(C(F)(F)F)c(Nc5ccccc5P(C)(C)=O)n4)cc3)c2)C1 (stereo not shown)
Could you check which of a and b has a smaller value for IC50? Answer by quoting the chosen item's label.
a

====

target: FAK (Homo sapiens (Human)); test: In vitro enzymatic inhibitory activity, FAK kinase (HTRF KinEASE-TK); conditions: FAK kinase, enzyme pre-incubation 15 minutes at 25° C.
Sequence (Q05397 whole entry, species assumed): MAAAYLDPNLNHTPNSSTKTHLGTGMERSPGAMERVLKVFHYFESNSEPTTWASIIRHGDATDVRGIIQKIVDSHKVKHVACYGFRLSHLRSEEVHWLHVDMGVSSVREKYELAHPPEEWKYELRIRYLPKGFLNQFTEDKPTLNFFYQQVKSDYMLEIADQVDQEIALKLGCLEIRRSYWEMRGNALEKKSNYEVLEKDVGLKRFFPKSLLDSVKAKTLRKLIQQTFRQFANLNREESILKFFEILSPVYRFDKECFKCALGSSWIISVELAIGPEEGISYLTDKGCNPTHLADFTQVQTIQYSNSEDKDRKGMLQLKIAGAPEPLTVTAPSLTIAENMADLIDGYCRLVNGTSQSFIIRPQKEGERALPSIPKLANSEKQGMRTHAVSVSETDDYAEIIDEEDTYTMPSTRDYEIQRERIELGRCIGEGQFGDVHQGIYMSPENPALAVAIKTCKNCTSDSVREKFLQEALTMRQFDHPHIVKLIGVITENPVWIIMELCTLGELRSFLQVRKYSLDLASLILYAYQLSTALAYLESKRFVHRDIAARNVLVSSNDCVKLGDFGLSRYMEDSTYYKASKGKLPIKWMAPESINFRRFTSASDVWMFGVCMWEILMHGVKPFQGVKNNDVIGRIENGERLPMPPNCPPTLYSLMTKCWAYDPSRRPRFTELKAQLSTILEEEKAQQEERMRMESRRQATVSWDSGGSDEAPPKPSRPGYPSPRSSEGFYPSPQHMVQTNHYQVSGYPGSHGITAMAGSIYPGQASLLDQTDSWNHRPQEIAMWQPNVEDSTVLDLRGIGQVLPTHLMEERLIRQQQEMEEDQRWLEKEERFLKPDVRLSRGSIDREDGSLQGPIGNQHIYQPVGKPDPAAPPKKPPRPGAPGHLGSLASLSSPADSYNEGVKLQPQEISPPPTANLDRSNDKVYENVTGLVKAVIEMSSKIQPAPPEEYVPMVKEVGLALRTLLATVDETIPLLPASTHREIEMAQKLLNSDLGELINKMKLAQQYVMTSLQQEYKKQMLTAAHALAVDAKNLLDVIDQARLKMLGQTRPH
pIC50: −log10 of the molar value.
value-kind: pIC50

Previously resolved entries follow.
Consider the compound C=CC(=O)N1CCCC(c2cccc(NCc3ccc(Nc4ncc(C(F)(F)F)c(Nc5ccccc5C(=O)NC(C)C)n4)cc3)c2)C1 (stereo not shown) and give its measured pIC50.
7.75

Consider the compound C=CC(=O)N1CCCC(c2cccc(NCc3ccc(Nc4ncc(C(F)(F)F)c(Nc5ccccc5C(=O)NCC)n4)cc3)c2)C1 (stereo not shown) and give its measured pIC50.
8.21

Consider the compound C=CC(=O)N1CCCC(c2cccc(NCc3ccc(Nc4ncc(C(F)(F)F)c(Nc5ccccc5C(=O)NOC)n4)cc3)c2)C1 (stereo not shown) and give its measured pIC50.
8.25

Consider the compound CC#CC(=O)N1CCCC(c2cccc(NCc3ccc(Nc4ncc(C(F)(F)F)c(Nc5ccccc5C(=O)NC)n4)cc3)c2)C1 (stereo not shown) and give its measured pIC50.
8.36

Consider the compound C=CC(=O)N1CCCC(c2cccc(NCc3ccc(Nc4ncc(C(F)(F)F)c(Nc5ccccc5S(=O)(=O)NC)n4)cc3)c2)C1 (stereo not shown) and give its measured pIC50.
8.43

Consider the compound C=CC(=O)N1CCCC1c1ccc(NCc2ccc(Nc3ncc(C(F)(F)F)c(Nc4ccccc4C(=O)NC)n3)cc2)cc1 (stereo not shown) and give its measured pIC50.
8.43

Consider the compound C=CC(=O)N1CCC(NC(=O)c2ccc(Nc3ncc(C(F)(F)F)c(NCc4nccnc4N(C)S(C)(=O)=O)n3)c(OC)c2)CC1 and give its measured pIC50.
8.95

Consider the compound C=CC(=O)N1CCCC(c2cccc(NCc3ccc(Nc4ncc(C(F)(F)F)c(Nc5cccc6c5C(=O)N(C)C6)n4)cc3)c2)C1 (stereo not shown) and give its measured pIC50.
8.30

Consider the compound C=CC(=O)N1CCCC(c2cccc(NCc3ccc(Nc4ncc(C(F)(F)F)c(Nc5ccccc5S(=O)(=O)NC(C)C)n4)cc3)c2)C1 (stereo not shown) and give its measured pIC50.
7.98

Consider the compound C/C=C/C(=O)N1CCCC(c2cccc(NCc3ccc(Nc4ncc(C(F)(F)F)c(Nc5ccccc5C(=O)NC)n4)cc3)c2)C1 (stereo not shown) and give its measured pIC50.
8.46

[I] C=CC(=O)N1CCCC(c2cccc(NCc3ccc(Nc4ncc(C(F)(F)F)c(Nc5ccccc5C(=O)NC)n4)cc3)c2)C1 (stereo not shown)
[II] C=CC(=O)N1CCCC(c2cccc(NCc3ccc(Nc4ncc(Br)c(Nc5ccccc5C(=O)NC)n4)cc3)c2)C1 (stereo not shown)
[III] C=CC(=O)N1CCCC(c2cccc(NCc3ccc(Nc4ncc(C(F)(F)F)c(Nc5cccc(F)c5C(=O)NC)n4)cc3)c2)C1 (stereo not shown)
Hello, I need these entries ordered by pIC50, highest reading first. Thanks! Please write the labels in the order that was asked for.
I, II, III
(I: 8.57, II: 8.17, III: 7.70)
